Please respond with reported Kd for every item in the list.
# ASSAYED TARGET: Human Fatty Acid Binding Protein (FABP4) (Homo sapiens, UniProt P15090)
# Sequence (P15090 whole entry): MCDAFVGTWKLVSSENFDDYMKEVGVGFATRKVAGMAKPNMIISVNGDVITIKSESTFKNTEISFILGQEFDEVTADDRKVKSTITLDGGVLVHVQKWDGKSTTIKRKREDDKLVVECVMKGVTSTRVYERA

Example results:
- MOL: "O=C(O)C(F)(F)C(F)(F)C(F)(F)C(F)(F)C(F)(F)C(F)(F)F"
  Kd: "4.46 µM"
- MOL: "O=C(O)C(F)(F)C(F)(F)C(F)(F)C(F)(F)C(F)(F)C(F)(F)C(F)(F)C(F)(F)C(F)(F)C(F)(F)C(F)(F)F"
  Kd: "< 1 µM"

# ---- query compound ----
## Task // Kd lookup, key: CCCCCCC(=O)O
## Result 145 µM
